The measured values listed here are drawn from PubChem BioAssay AID2060486.

Test system: IGROV1 complex spheroids (HUVEC, MSC), viability % test/control
Measurement description: Anticancer human tumor IGROV1 cell line growth inhibition [GQUAD];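 note: spheroids exposed to compounds for 7 days before readout; 100% = DMSO vehicle control viability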
Protocol conditions: second compound 10 µM; first compound 0.316 µM; stronger effect = lower value
Lab note: anything with viability, T/C below 3% is marked Criterion met; values at 3% or higher are marked Criterion not met.

CC1COCCN1c1cc(-c2ccnn2C)c2ccnc(-c3ccn[nH]3)c2n1 (stereo unspecified) + Cc1[nH]c2ccc(F)cc2c1-c1nc2c3cccnc3c3ncccc3c2[nH]1
Criterion not met
Cc1[nH]c2ccccc2c1CCNCc1ccc(/C=C/C(=O)NO)cc1 + CN(C)c1ccc(Nc2c3ccc(NC(=O)CCN4CCCC4)cc3nc3cc(NC(=O)CCN4CCCC4)ccc23)cc1
Criterion met
COc1ccc([C@@H](O)c2cc(-c3ncnc4cc(N5CCOCC5)ccc34)c(F)cc2Cl)nn1 + Cc1[nH]c2ccc(F)cc2c1-c1nc2c3cccnc3c3ncccc3c2[nH]1
Criterion not met

Please state whether viability, T/C is below 3% for COc1cccc2c1C(=O)c1c(O)c3c(c(O)c1C2=O)CC(O)(C(=O)CO)CC3OC1CC(N)C(O)C(C)O1 (stereo unspecified) + CN(C)c1ccc(Nc2c3ccc(NC(=O)CCN4CCCC4)cc3nc3cc(NC(=O)CCN4CCCC4)ccc23)cc1 Criterion not met

Please state whether viability, T/C is below 3% for CC1COCCN1c1cc(C2(O)CC3CCC(C2)O3)c2cnn(-c3ccn[nH]3)c2n1 (stereo unspecified) + Cc1[nH]c2ccc(F)cc2c1-c1nc2c3cccnc3c3ncccc3c2[nH]1 Criterion not met

Please state whether viability, T/C is below 3% for CC(C)(O)C1CCC(Nc2ccc3ncc(-c4cccc(C(F)(F)F)c4)n3n2)CC1 (stereo unspecified) + Cc1[nH]c2ccc(F)cc2c1-c1nc2c3cccnc3c3ncccc3c2[nH]1 Criterion not met

* * *

System: IGROV1 complex spheroids (HUVEC, MSC), viability % test/control
Measurement description: Anticancer human tumor IGROV1 cell line growth inhibition [GQUAD];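 note: spheroids exposed to compounds for 7 days before readout; 100% = DMSO vehicle control viability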
Protocol conditions: second compound 0.0316 µM; first compound 0.316 µM; stronger effect = lower value
Experimental endpoint: viability, T/C (%)
Numeric answer only, unit % assumed.

Cc1cccc(N(C)C(=O)C2C(O)CCN2c2nc(C)cc(C(F)(F)F)c2C#N)c1 (stereo unspecified) + Cc1[nH]c2ccc(F)cc2c1-c1nc2c3cccnc3c3ncccc3c2[nH]1
105
Cc1cccc(N(C)C(=O)C2C(O)CCN2c2nc(C)cc(C(F)(F)F)c2C#N)c1 (stereo unspecified) + Cc1cnc(CNC(=O)c2c(=O)c3ccc(N4CCCN(C)CC4)nc3n3c2sc2ccccc23)cn1
65.6
O=C(c1cc(Cc2n[nH]c(=O)c3ccccc23)ccc1F)N1CCN(C(=O)C2CC2)CC1 + CN(C)c1ccc(Nc2c3ccc(NC(=O)CCN4CCCC4)cc3nc3cc(NC(=O)CCN4CCCC4)ccc23)cc1
67.3
O=C(NO)c1cnc(N2CCN(S(=O)(=O)c3ccc4ccccc4c3)CC2)nc1 + Cc1[nH]c2ccc(F)cc2c1-c1nc2c3cccnc3c3ncccc3c2[nH]1
12.1
CC(C)n1c(=O)n(C)c2cnc3cc(F)c(-c4ccc(OCCCN5CCCCC5)nc4)cc3c21 + Cc1[nH]c2ccc(F)cc2c1-c1nc2c3cccnc3c3ncccc3c2[nH]1
92.5
CC1COCCN1c1cc(C2(O)CC3CCC(C2)O3)c2cnn(-c3ccn[nH]3)c2n1 (stereo unspecified) + Cc1[nH]c2ccc(F)cc2c1-c1nc2c3cccnc3c3ncccc3c2[nH]1
7.44
CCc1c2c(nc3ccc(O)cc13)-c1cc3c(c(=O)n1C2)COC(=O)[C@]3(O)CC + Cc1[nH]c2ccc(F)cc2c1-c1nc2c3cccnc3c3ncccc3c2[nH]1
1.3
CCc1c2c(nc3ccc(O)cc13)-c1cc3c(c(=O)n1C2)COC(=O)[C@]3(O)CC + Cc1cnc(CNC(=O)c2c(=O)c3ccc(N4CCCN(C)CC4)nc3n3c2sc2ccccc23)cn1
1.99

Read the entry COc1ncnc(C2CC2)c1-c1ncc2cnn(Cc3ccc(-c4nc(C(F)(F)F)cn4C(C)C)cc3)c2n1 + Cc1[nH]c2ccc(F)cc2c1-c1nc2c3cccnc3c3ncccc3c2[nH]1 and write its reported viability, T/C. 89.6

Read the entry CC1COCCN1c1cc(C2(S(C)(=N)=O)CC2)nc(-c2ccnc3[nH]ccc23)n1 (stereo unspecified) + Cc1[nH]c2ccc(F)cc2c1-c1nc2c3cccnc3c3ncccc3c2[nH]1 and write its reported viability, T/C. 80.4

Read the entry CC1COCCN1c1cc(C2(S(C)(=N)=O)CC2)nc(-c2ccnc3[nH]ccc23)n1 (stereo unspecified) + Cc1cnc(CNC(=O)c2c(=O)c3ccc(N4CCCN(C)CC4)nc3n3c2sc2ccccc23)cn1 and write its reported viability, T/C. 43.3
